From: PubChem BioAssay AID1159580

Test: chemical genetic growth profiling, strain panel (AID 1159580);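 further: tested at 20 µM; growth read once vehicle control cultures reached saturation at 30 °C; 1 = growth at the plate median or of vehicle wells; lower values mean less growth of the strain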
Conditions: S. cerevisiae deletion strains, growth OD, locus YOR290C, strain snf2, hits give low values
In all, about 5,500 compounds went through this assay and about 2,000 (36%) were called active. Inconclusive results (about 18%) are left out. The list shows a part of the results.
measured_attribute: normalized growth
API note: the answer field is a bare number with no unit suffix.

molecule	normalized growth
CC[C@H](C)C(=O)O[C@H]1C[C@@H](C)C=C2C=C[C@H](C)[C@H](CC[C@@H]3C[C@@H](O)CC(=O)O3)[C@H]21	1.02
CC[C@H](C)C(=O)O[C@H]1CCC=C2C=C[C@H](C)C(CCC3C[C@@H](O)CC(=O)O3)[C@H]21 (some centres undefined)	0.991
Cc1c(S(=O)(=O)O)oc2c1C(=O)C(=O)c1c-2ccc2c1CCCC2(C)C	0.95

Next item in the queue.
Request: // query normalized growth value for entry CCC(C)(C)C(=O)O[C@H]1C[C@@H](C)C=C2C=C[C@H](C)[C@H](CC[C@@H]3C[C@@H](O)CC(=O)O3)[C@H]21
Result: 0.991

====

Assay: chemical genetic growth profiling, strain panel (AID 1159580);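 further: tested at 20 µM; growth read once vehicle control cultures reached saturation at 30 °C; 1 = growth at the plate median or of vehicle wells; lower values mean less growth of the strain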
Conditions: S. cerevisiae deletion strains, growth OD, locus YHR030C, strain SLT2
About 2,000 (36%) of roughly 5,500 compounds were called active. Another 18% or so got no clear call; they are omitted. Rule as the data show it: active = normalized growth mostly below about 0.91 (no sharp cut-off); inconclusive = no clear call, values can overlap the other calls; inactive = mostly above about 0.92. Some of the results follow.
Field 'call' accepts true (active), false (inactive)

molecule	answer_label
Cc1onc(-c2c(F)cccc2Cl)c1C(=O)ON=C1C2CC3CC(C2)CC1C3	false
Cc1onc(-c2c(F)cccc2Cl)c1C(=O)c1ccc(F)cc1	false
Cc1onc(-c2c(Cl)cccc2Cl)c1C(=O)NC(C)(C)CC(C)(C)C	false
Cc1onc(-c2c(Cl)cccc2Cl)c1C(=O)NNc1c(Cl)cccc1Cl	true
CC(C)(C)c1ccc(C(=O)NNc2c(Cl)cccc2Cl)cc1	false

Request: Answer briefly: the call reported for O=C(O)c1cc2cc(Cc3cccnc3)ccc2o1 in this assay.
Result: false

Request: Cool, now CCc1ccn2cc(Nc3ccccc3Cl)nc2c1
Result: false

Request: Cool, now CC12NC(=O)NC1(C)NC(=O)N2 (stereo unspecified)
Result: false

Request: Cool, now O=C(NNc1ccc(I)cc1)c1cc(Cl)cc(Cl)c1
Result: true

Request: Cool, now OC(CN1CCN(c2nc3ccc(Cl)cc3s2)CC1)CN1CCCN(c2ncc(C(F)(F)F)cc2Cl)CC1 (stereo unspecified)
Result: true

Request: Cool, now COc1cc(-c2coc3cc(OCc4ccccc4)c(OC)c(O)c3c2=O)cc(OCc2ccccc2)c1OC
Result: false

====

Listing of entries alongside the reported normalized growth.
Assay: chemical genetic growth profiling, strain panel (AID 1159580);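 further: tested at 20 µM; growth read once vehicle control cultures reached saturation at 30 °C; 1 = growth at the plate median or of vehicle wells; lower values mean less growth of the strain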
Conditions: S. cerevisiae deletion strains, growth OD, locus YOR069W, strain VPS5, hits give low values
Screen size: about 5,500 compounds; about 2,000 (36%) were called active. Not shown: some 18% with an inconclusive outcome. The list shows a part of the results.
API note: the answer field is a bare number with no unit suffix.

Before answering, review these 5 worked examples.
compound	normalized growth
COc1ccc2c(c1)O[C@H]1c3ccc(OC)cc3OC[C@@H]21	0.982
COc1cc2c(cc1OC)C1Cc3ccc(OC)c(OC)c3CN1CC2 (stereo unspecified)	0.984
NC[C@@H]1CC[C@@H](N)[C@@H](O[C@H]2[C@H](O)[C@@H](O[C@H]3O[C@H](CO)[C@@H](O)[C@H](N)[C@H]3O)[C@H](N)C[C@@H]2N)O1	0.996
CCNC(=O)CC[C@H](N)C(=O)O	0.988
NC(=O)c1cccc(N)c1	1.01

Next item in the queue.
Request: // query normalized growth value for entry CCCCOC(=O)c1ccc(N)cc1
Result: 0.987
